# Test system: 786-0 renal
# assay-summary: NCI tumour cell line growth inhibition, 48 h
# TGI >= 6 µM gives true, anything below gives false

Record excerpt, results attached:
compound="COC(=O)C1CC(C(=O)OC)c2nc3cc([N+](=O)[O-])ccc3nc21 (centres undefined)" label_value=true
compound="N#CCC(=O)N/N=C(\\CCN1CCCC1)CC(c1ccccc1)c1c(O)c2ccccc2oc1=O (centres undefined)" label_value=true
compound=c1ccc(CSCCNCCN(CCNCCSCc2ccccc2)CCNCCSCc2ccccc2)cc1 label_value=false
compound="CCN(CC)c1ccc(C2=NN(C(C)=O)C(c3cc(OC)c(OC)c(OC)c3)C2)cc1 (centres undefined)" label_value=true
compound=COc1cc2cc(c1Cl)N(C)C(=O)C[C@H](OC(=O)[C@H](C)N(C)C(=O)CCS)C[C@]1(C)O[C@H]1[C@H](C)[C@@H]1C[C@@](O)(NC(=O)O1)[C@H](OC)/C=C/C=C(\C)C2 label_value=true
compound="CC12OC(CC(O)C1O)n1c3ccccc3c3c4c(c5c6ccccc6n2c5c31)C(=O)N(CCN1CCCC1)C4=O (centres undefined)" label_value=true

Dear colleague, could you confirm whether Cc1ccc(S(=O)(=O)NNC(=O)Nc2ccc(Cl)cc2)cc1 has TGI at or above 6 µM?
true

Dear colleague, could you confirm whether CCCCCCCCCc1c(Cl)nc(Cl)nc1Cl has TGI at or above 6 µM?
true

Dear colleague, could you confirm whether COc1cccc(C(=O)c2sc(Nc3ccc(N4CCN(C(C)C)CC4)cc3)nc2N)c1 has TGI at or above 6 µM?
false
